Taken from patent US20230219986A1.

biological target: wild-type EGFR (Homo sapiens, UniProt P00533); construct: purchased Signalchem; experiment: Enzymology experiment in vitro (HTRF/FRET kinase activity), wild-type EGFR; format: biochemical; details: HTRF KinEASE-TK, read-out: EGFR (WT) IC50
Sequence (P00533 25-1210): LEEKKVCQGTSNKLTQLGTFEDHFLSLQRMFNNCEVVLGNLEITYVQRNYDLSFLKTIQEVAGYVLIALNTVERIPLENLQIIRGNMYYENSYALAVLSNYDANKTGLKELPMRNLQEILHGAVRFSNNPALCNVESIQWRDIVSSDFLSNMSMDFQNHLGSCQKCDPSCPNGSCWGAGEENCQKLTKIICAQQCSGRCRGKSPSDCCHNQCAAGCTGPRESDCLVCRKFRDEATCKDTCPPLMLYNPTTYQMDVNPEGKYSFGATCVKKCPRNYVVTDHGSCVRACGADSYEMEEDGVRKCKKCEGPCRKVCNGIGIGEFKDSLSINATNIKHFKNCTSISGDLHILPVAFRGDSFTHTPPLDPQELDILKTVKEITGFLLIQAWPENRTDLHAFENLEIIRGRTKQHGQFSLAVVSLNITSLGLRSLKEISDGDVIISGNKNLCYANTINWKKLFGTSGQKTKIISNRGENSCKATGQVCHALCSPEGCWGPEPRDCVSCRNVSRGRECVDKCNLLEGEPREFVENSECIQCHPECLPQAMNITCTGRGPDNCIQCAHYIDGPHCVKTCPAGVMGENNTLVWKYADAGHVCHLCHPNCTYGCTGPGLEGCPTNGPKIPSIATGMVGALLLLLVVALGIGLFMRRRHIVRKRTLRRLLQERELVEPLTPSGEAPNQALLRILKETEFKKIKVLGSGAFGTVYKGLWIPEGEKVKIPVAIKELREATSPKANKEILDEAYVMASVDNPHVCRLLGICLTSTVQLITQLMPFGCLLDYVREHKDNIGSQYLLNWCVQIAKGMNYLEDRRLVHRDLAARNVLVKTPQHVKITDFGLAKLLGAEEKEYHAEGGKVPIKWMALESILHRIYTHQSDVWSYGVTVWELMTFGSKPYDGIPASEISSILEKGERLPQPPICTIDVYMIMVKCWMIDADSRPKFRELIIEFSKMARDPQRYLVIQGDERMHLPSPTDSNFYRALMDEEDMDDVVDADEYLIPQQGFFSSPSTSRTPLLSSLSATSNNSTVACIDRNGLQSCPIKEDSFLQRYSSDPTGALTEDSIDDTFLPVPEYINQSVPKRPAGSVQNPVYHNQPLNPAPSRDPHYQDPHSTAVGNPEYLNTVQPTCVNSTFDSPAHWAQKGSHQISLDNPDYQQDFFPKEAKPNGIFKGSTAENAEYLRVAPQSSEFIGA
pIC50: −log10 of the molar value.
VALUE_KIND: pIC50

The cases that follow already have their pIC50 on record.
# COMPOUND_STRUCTURE_STRING, pIC50
data = [
    ("COc1cc(N2CCC(N3CC(CF)C3)CC2)c(-c2cnn(C)c2)cc1Nc1ncc(Br)c(Nc2ccc3nccnc3c2P(C)(C)=O)n1", 8.80),
    ("COc1cc(N2CCOCC2)c(-c2cnn(C)c2)cc1Nc1ncc(Br)c(Nc2ccc3ncccc3c2P(C)(C)=O)n1", 8.63),
]

(A) COc1cc(N2CCOCC2)c(-c2cnn(C)c2)cc1Nc1ncc(Br)c(Nc2ccc3nccnc3c2N(C)S(C)(=O)=O)n1
(B) COc1cc(N2CCC(N3CCN(C)CC3)CC2)c(-c2cnn(C)c2)cc1Nc1ncc(Br)c(Nc2cc3c(cc2N(C)S(C)(=O)=O)CC3)n1
(C) COc1cc(N2CCC(N3CCC(OC)CC3)CC2)c(-c2cnn(C)c2)cc1Nc1ncc(Br)c(Nc2ccc3nccnc3c2P(C)(C)=O)n1
(D) COc1cc(N2CCOCC2)c(-c2cnn(C)c2)cc1Nc1ncc(C2CC2)c(Nc2ccc3nccnc3c2P(C)(C)=O)n1
Data request: Returns the items ordered by pIC50, from maximum to minimum. Labels, requested order.
Data returned: C, B, A, D

(P) COc1cc(N2CCC(C)(OC)CC2)c(-c2cnn(C)c2)cc1Nc1ncc(Br)c(Nc2ccc3nccnc3c2P(C)(C)=O)n1
(Q) COc1cc(N2CCC3(CCN(CC4(C#N)CC4)CC3)CC2)c(-c2cnn(C)c2)cc1Nc1ncc(Br)c(Nc2ccc3nccnc3c2P(C)(C)=O)n1
(R) COc1cc(N2CCN(CC3CC3)CC2)c(-c2cnn(C)c2)cc1Nc1ncc(Br)c(Nc2ccc3cncnc3c2P(C)(C)=O)n1
(S) CCn1cc(-c2cc(Nc3ncc(Br)c(Nc4ccc5nccnc5c4P(C)(C)=O)n3)c(OC)cc2N2CCOCC2)cn1
Data request: Arrange these 4 compounds in increasing order of pIC50. Labels, requested order.
Data returned: S, R, P, Q

(A) COc1cc(N2CCNC(=O)C2)c(-c2cnn(C)c2)cc1Nc1ncc(Br)c(Nc2ccc3nccnc3c2P(C)(C)=O)n1
(B) COc1cc(N2CCC3(CCN(CCF)CC3)CC2)c(-c2cnn(C)c2)cc1Nc1ncc(Br)c(Nc2ccc3nccnc3c2P(C)(C)=O)n1
Data request: Identify the item whose pIC50 is the smaller number: A or B Give the label of your selection.
Data returned: A
(A: 8.25, B: 9.11)
